Taken from patent US10233186B2.

Target: human ALK2 R206H (Homo sapiens, UniProt Q04771, R206H)
Construct: expressed in transfected cells; host or cells: HEK293 (ATCC CRL1573), lentivirus transduction, blasticidin selection
Sequence (Q04771 21-509 R206H): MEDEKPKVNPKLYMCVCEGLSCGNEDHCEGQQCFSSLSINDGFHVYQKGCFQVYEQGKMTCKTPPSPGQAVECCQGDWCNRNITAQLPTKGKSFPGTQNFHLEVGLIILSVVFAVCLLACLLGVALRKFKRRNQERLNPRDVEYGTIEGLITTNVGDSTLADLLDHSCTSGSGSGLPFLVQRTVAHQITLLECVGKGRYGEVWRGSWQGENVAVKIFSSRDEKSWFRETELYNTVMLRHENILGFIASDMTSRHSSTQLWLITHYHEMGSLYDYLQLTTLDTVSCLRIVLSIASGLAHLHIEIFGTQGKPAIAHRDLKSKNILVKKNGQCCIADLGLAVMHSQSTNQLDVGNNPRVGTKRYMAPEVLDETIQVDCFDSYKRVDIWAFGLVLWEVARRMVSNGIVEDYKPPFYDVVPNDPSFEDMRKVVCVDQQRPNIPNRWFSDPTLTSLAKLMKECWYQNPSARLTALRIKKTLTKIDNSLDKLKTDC
Experiment: Cell-based ALK2-R206H cell activity assay (Smad1-Ser463/Ser465 phosphorylation by AlphaLISA in HEK293-ALK2-R206H cells)
Settings: read-out: Cell Line (Cell Assay IC50)
// IC50 lookup, one value per entry

// known answers, use as guide
Compound	IC50
O=C(C1CC1)N1CCN(c2ccnn3cc(-c4ccc(N5CCN6CCC6C5)cc4)cc23)CC1 (centres unmarked) [Compound 196]	100 to 500 nM
COC1(c2cnc(-c3cc4c(N5CCN(C(=O)NC(C)C)CC5)ccnn4c3)c(F)c2)CCN(C(C)C)CC1 [Compound 725]	< 100 nM
CCOC(=O)N1CCN(c2ccnn3cc(-c4ccc(N5CCN(C(C)C)CC5)cc4)cc23)CC1 [Compound 295]	< 100 nM
COC1(c2ccc(-c3cc4c(N5CCN(C(=O)OC6COC6)CC5)ccnn4c3)cc2)CCOCC1 [Compound 799]	< 100 nM
COC[C@@H](C)N1CCC(OC)(c2ccc(-c3cc4c(N5CCN(C(=O)OC6COC6)CC5)ccnn4c3)nc2)CC1 [Compound 744]	< 100 nM
O=C(C1CC1)N1CCN(c2ccnn3cc(-c4ccc(C5CCCN5)cc4)cc23)CC1 (centres unmarked) [Compound 113]	< 100 nM

INPUT: Which IC50 is listed for CCN1CC2(C1)CN(c1ccc(-c3cc4c(N5CCN(C(=O)[C@H]6C[C@H]6F)CC5)ccnn4c3)cc1)C2 [Compound 333] ?
OUTPUT: < 100 nM

INPUT: Look up IC50: CC(C)N1CCC(c2ccc(-c3cc4c(N5CCN(C(=O)C6CC6)CC5)ccnn4c3)cn2)CC1 [Compound 267]
OUTPUT: < 100 nM

INPUT: Which IC50 value belongs to O=C(OC1COC1)N1CCN(c2ccnn3cc(-c4ccc(N5CCNCC5)cc4)cc23)CC1 [Compound 775] ?
OUTPUT: < 100 nM

INPUT: Return reported IC50; argument: CCOC(=O)N1CCN(c2ccnn3cc(-c4ccc([C@@]5(F)CCCN(C(C)C)C5)cc4)cc23)CC1 [Compound 611]
OUTPUT: < 100 nM
